System: Plasmodium falciparum
EXPERIMENTAL PROTOCOL: Screen against P. falciparum Asexual Blood Stage (ABS), at 5uM
Assay type: functional, Dd2
ASSAY CONTEXT: tested at 5 uM
Among all 65,000 compounds or so, about 2,100 (3.2%) showed an effect of 50% or more. The median lay at about -52%. Many of the other results were omitted from the sample, so strong results are more common in it than they were.
For each entry below, report its INHIBITION value.
Write it as a number; the unit % goes unstated.

Request: Which INHIBITION value is on record for O=C(Nc1nc2c(s1)CNCC2)C1CC1 ?
Response: -117

Request: Which INHIBITION value is on record for Cc1ccoc1C(=O)N1CCCC(c2cc(C(F)(F)F)[nH]n2)C1 (configuration not stated) ?
Response: -127

Request: Which INHIBITION value is on record for CC(=O)N1CCC2(CCCN(C(=O)CCN3CCCCC3)C2)C1 (configuration not stated) ?
Response: -141

Request: Which INHIBITION value is on record for Cc1cccc(N2CC[C@H]3CO[C@H](CN(C)Cc4ccco4)[C@H]3C2)n1 ?
Response: 50.7

Request: Which INHIBITION value is on record for Cc1ccc(N2CC[C@H]3CO[C@H](CN(C)Cc4ccco4)[C@H]3C2)nn1 ?
Response: -35.9

Request: Which INHIBITION value is on record for O=C(NCc1ccco1)c1cccc(C(=O)NCc2ccco2)n1 ?
Response: -31

Request: Which INHIBITION value is on record for Cc1ccc(CN2CCC3(C2)C(=O)N(CC2CC2)c2ccccc23)s1 (configuration not stated) ?
Response: -74.8

Request: Which INHIBITION value is on record for CC1CCCN(Cc2c(C3CC3)n(CC(=O)N(C)C)c3ncccc23)C1 (configuration not stated) ?
Response: -59.9

Request: Which INHIBITION value is on record for O=C1CC(c2ccncc2)c2c(sc3c2CCCC3)N1 (configuration not stated) ?
Response: 56.8

Request: Which INHIBITION value is on record for Cn1ccnc1Sc1ccc(N)cn1 ?
Response: -78.1

Request: Which INHIBITION value is on record for O=C(NC1CCC1)[C@@H]1CCO[C@@H]2CCN(CCc3ccccc3)C[C@H]21 ?
Response: 36.5

Request: Which INHIBITION value is on record for CC(C)CSCCCNC(=O)C1CCC1 ?
Response: -47.5

Request: Which INHIBITION value is on record for COCCN1CCC(CNCc2c[nH]nc2C(C)(C)C)CC1 ?
Response: -130

Request: Which INHIBITION value is on record for O=C1CC(c2ccc(C(=O)O)cc2)c2c(sc3c2CCCC3)N1 (configuration not stated) ?
Response: -3.15

Request: Which INHIBITION value is on record for CN(Cc1ccco1)C[C@H]1OC[C@@H]2CCN(Cc3nccs3)C[C@@H]21 ?
Response: 11.4

Request: Which INHIBITION value is on record for CN(C)CCN1CCC(CNCc2c[nH]nc2C(C)(C)C)CC1 ?
Response: -15.5

Request: Which INHIBITION value is on record for CN(Cc1ccco1)C[C@H]1OC[C@@H]2CCN(Cc3ccsc3)C[C@@H]21 ?
Response: 67.3

Request: Which INHIBITION value is on record for CN(C(=O)Nc1ccncc1)C1CCN(c2ccc(Cl)cc2)CC1 ?
Response: -10.2

Request: Which INHIBITION value is on record for CN(Cc1ccco1)C[C@H]1OC[C@@H]2CCN(Cc3cccnc3)C[C@@H]21 ?
Response: -38.5

Request: Which INHIBITION value is on record for CC(=O)N1CCC(n2ccc(-c3cnc(NCC(C)C)nc3)n2)CC1 ?
Response: -32.2

Request: Which INHIBITION value is on record for Cc1cccc(N2CC[C@H]3[C@H](CO[C@@H]3CN(C)Cc3ccco3)C2)n1 ?
Response: 7.29

Request: Which INHIBITION value is on record for CC(=O)N1CCCC2(C1)CN(C(=O)C1CCCCC1)CCO2 (configuration not stated) ?
Response: -104
